System: 786-0
PROTOCOL: NCI tumour cell line growth inhibition, 48 h
Active and inactive are the calls of the source. Cut-off read from the data, not from the text of the source: active = GI50 up to about 1.1 µM and inactive = higher.
Below: a set of entries, each annotated with reported GI50.

Example compounds with recorded GI50:
[[record]]
compound = "O=c1c2ccccc2nc2sc(/N=C/C=C/c3ccccc3)nn12"
attribute_measured = "GI50"
measured_value = "> 100 µM (inactive)"

[[record]]
compound = "Cc1nc(C(N)=S)sc1/C(CC(=O)C(=O)Nc1cccc2ccc(O)cc12)=N\\NC(=O)c1ccncc1"
attribute_measured = "GI50"
measured_value = "40.3 µM (inactive)"


What reported GI50 corresponds to "COc1cc(/C=C\c2ccccc2)cc(OC)c1OC" on 786-0?
5.08 µM (inactive)

Follow-up entry: CC(=O)Nc1ccc(N2C(=O)CS(=O)(=O)C2c2cccc(Oc3ccccc3)c2)cc1 (stereo not given)
17.1 µM (inactive)

Follow-up entry: "C1=CCC[C@@H]2CN3CCCC/C=C\CCCC[C@H]4C[C@H](CN(CCCCCCCC1)C4)[C@H]2CC3"
8.67 µM (inactive)

Follow-up entry: "CCOC(=O)NC(C(C(=O)OCC)C(=O)OCC)(C(F)(F)F)C(F)(F)F"
> 100 µM (inactive)

Follow-up entry: Cc1nn(-c2ccccc2)c2c1C(c1cc3ccccc3nc1Cl)NC(=O)N2 (stereo not given)
16.7 µM (inactive)

Follow-up entry: "Cc1nc(C(N)=S)sc1C(=O)/C=C/c1cccc(O)c1"
> 100 µM (inactive)

Follow-up entry: CN1c2c(O)nc(N)nc2NCC1CCNc1ccc(C(=O)NC(CCC(=O)O)C(=O)O)cc1 (stereo not given)
4.59 µM (inactive)

Follow-up entry: "Cc1ccc(S(=O)(=O)NNC(=O)c2cc(C)c(C)cc2N)cc1"
> 100 µM (inactive)

---

Tested on: IGROV-1
PROTOCOL: NCI tumour cell line growth inhibition, 48 h
Activity calls are given as the source filed them. No stated cut-off is given here; in the data, active = GI50 up to about 1.1 µM and inactive = higher.
Below: a set of entries, each annotated with reported GI50.

Example molecules with recorded GI50:
[[record]]
molecule = "CN(CCCNC(=O)c1c2ccc3ccccc3c2nn1C)CCCNC(=O)c1c2ccc3ccccc3c2nn1C"
measured_value = "8.79 µM (inactive)"

[[record]]
molecule = "CCOC(=O)c1sc2nc(SC)nc3c2c1N=CN3c1ccc(Br)cc1"
measured_value = "> 100 µM (inactive)"

[[record]]
molecule = "CC(C)(C)[Si](C)(C)OCC1OC(n2ccc(=O)[nH]c2=O)C(O[Si](C)(C)C(C)(C)C)/C1=C/C#N (stereo unspecified)"
measured_value = "40.8 µM (inactive)"


What reported GI50 corresponds to COc1nc(N)c(/N=C/C(OC(C)=O)C(OC(C)=O)C(COC(C)=O)OC(C)=O)c(=O)n1C (stereo unspecified) on IGROV-1?
> 100 µM (inactive)

Follow-up entry: CC(NC1=CC(=O)c2ncccc2C1=O)C(O)c1ccccc1 (stereo unspecified)
3.67 µM (inactive)

Follow-up entry: CC(=O)OCC12CCC3C4(C)CCCC(C)(C)C4CCC3(C)C1CC(C1=CC(=O)OC1O)O2 (stereo unspecified)
1.54 µM (inactive)

---

Below: a set of entries, each annotated with reported GI50.
Test system: IGROV-1
PROTOCOL: NCI tumour cell line growth inhibition, 48 h
The source made the active and inactive calls. No stated cut-off is given here; in the data, active = GI50 up to about 1.1 µM and inactive = higher.

[[record]]
compound = "CCOC(=O)C(C(=O)OCC)C(=S)NC1OC(COC(C)=O)C(OC(C)=O)C(OC(C)=O)C1OC(C)=O (stereo unspecified)"
tgt = "IGROV-1"
attribute_measured = "GI50"
measured_value = "> 100 µM (inactive)"


Look up GI50 for this compound: "O=c1[nH]nc2c3n[nH]c(=O)n3c3ccccc3n12"
> 100 µM (inactive)

---

Below: a set of entries, each annotated with reported GI50.
Test system: SF-268
PROTOCOL: NCI tumour cell line growth inhibition, 48 h
Activity calls are given as the source filed them. Cut-off read from the data, not from the text of the source: active = GI50 up to about 1.1 µM and inactive = higher.

Example compounds with recorded GI50:
[[record]]
compound = "COc1nc(N)c(/N=C/C(OC(C)=O)C(OC(C)=O)C(COC(C)=O)OC(C)=O)c(=O)n1C (stereo not given)"
attribute_measured = "GI50"
measured_value = "> 100 µM (inactive)"

[[record]]
compound = "CC(C#N)NCc1ccc(C(C)NC(C)C#N)cc1 (stereo not given)"
attribute_measured = "GI50"
measured_value = "> 100 µM (inactive)"

[[record]]
compound = "N#C/C(=C1\\SC(/N=N/c2ccc(Cl)cc2)C(=O)N1c1ccccc1)c1nc2ccccc2[nH]1 (stereo not given)"
attribute_measured = "GI50"
measured_value = "> 100 µM (inactive)"

[[record]]
compound = "COc1ccc2c(c1)CC[C@@H]1C2CC[C@]2(C)C(=C=CP(=O)(O)O)CCC12 (stereo not given in full)"
attribute_measured = "GI50"
measured_value = "> 100 µM (inactive)"


Look up GI50 for this compound: "COc1cc(/C=C\c2ccccc2)cc(OC)c1OC"
6.55 µM (inactive)

Follow-up entry: "Clc1ccc(OCc2nnc(COc3ccc(OCc4nnc(COc5ccc(Cl)cc5Cl)o4)c(Cl)c3)o2)c(Cl)c1"
23.5 µM (inactive)

---

System: UACC-257
PROTOCOL: NCI tumour cell line growth inhibition, 48 h
Activity calls are given as the source filed them. Cut-off read from the data, not from the text of the source: active = GI50 up to about 1.1 µM and inactive = higher.
ATTRIBUTE MEASURED: GI50

Example compounds with recorded GI50:
[[record]]
compound = "C[C@@H]1C[C@H]2[C@@H]3CCC4=CC(=O)C=C[C@]4(C)[C@@]3(F)[C@@H](O)C[C@]2(C)[C@@]1(O)C(=O)CO"
measured_value = "> 100 µM (inactive)"

[[record]]
compound = "CCOC(=O)c1c(C)c(C)n2c1NC(=O)C2"
measured_value = "> 60 µM (inactive)"

[[record]]
compound = "Cc1ccc(/N=N/C(C2=NC(=O)CS2)c2nc3ccccc3[nH]2)cc1 (stereo not given)"
measured_value = "> 100 µM (inactive)"

[[record]]
compound = "CN(C)c1nc(Cl)c2c(-c3ccccc3)c(-c3ccccc3)oc2n1"
measured_value = "> 100 µM (inactive)"

[[record]]
compound = "CC(=O)OCC(=O)OC[C@H](OCc1ccccc1)[C@@H]1[C@H](OC(C)=O)C(=O)N1Cc1ccccc1"
measured_value = "> 100 µM (inactive)"

[[record]]
compound = "COc1ccc(N2C(=O)C3c4[nH]c5ccccc5c4C4CCC(C(C)(C)C)CC4C3C2=O)cc1OC (stereo not given)"
measured_value = "67 µM (inactive)"

[[record]]
compound = "Clc1ccc(OCc2nnc(COc3ccc(OCc4nnc(COc5ccc(Cl)cc5Cl)o4)c(Cl)c3)o2)c(Cl)c1"
measured_value = "> 100 µM (inactive)"

[[record]]
compound = "CC(=O)OCC12CCC3C4(C)CCCC(C)(C)C4CCC3(C)C1CC(C1=CC(=O)OC1O)O2 (stereo not given)"
measured_value = "1.91 µM (inactive)"


Look up GI50 for this compound: "CN(/N=C/C=N/N(C)C1=NCCCCN1)C1=NCCCCN1"
> 100 µM (inactive)

Follow-up entry: "N=C(N)N/N=C/c1cnn(C(=N)N)c1"
57.4 µM (inactive)

Follow-up entry: "CN1S(=O)(=O)N(C)P12(N=P(CP(=NP13(N(C)S(=O)(=O)N1C)N(C)S(=O)(=O)N3C)(c1ccccc1)c1ccccc1)(c1ccccc1)c1ccccc1)N(C)S(=O)(=O)N2C"
> 100 µM (inactive)

Follow-up entry: "c1coc(CNc2[nH]cnc3nncc2-3)c1"
> 100 µM (inactive)

Follow-up entry: "O=c1[nH]nc2c3n[nH]c(=O)n3c3ccccc3n12"
> 100 µM (inactive)

Follow-up entry: "CSc1c(C#N)c(S)n(-c2ccc(Cl)cc2)c(=O)c1C#N"
> 100 µM (inactive)

---

Tested on: OVCAR-4
PROTOCOL: NCI tumour cell line growth inhibition, 48 h
The source made the active and inactive calls. Rule as the data show it: active = GI50 up to about 1.1 µM and inactive = higher.
ATTRIBUTE MEASURED: GI50

[[record]]
molecule = "CCOC(=O)c1cc(/C=C/C(C)=C/C(=O)OC)oc1-c1ccccc1"
tgt = "OVCAR-4"
measured_value = "63.5 µM (inactive)"


What reported GI50 corresponds to "Cc1ncc(COP(=O)(O)O)c(/C=C2\SC(=S)NC2=O)c1O" on OVCAR-4?
> 100 µM (inactive)

Follow-up entry: O=C(CSc1nc2ccc(I)cc2c(=O)n1Cc1ccccc1)NN1C(=O)CSC1c1ccccc1 (centres undefined)
25.8 µM (inactive)

Follow-up entry: Cc1cccc(C)c1NC(=O)C(=O)C(c1ccccc1Cl)S(=O)(=O)Cc1ccccc1Cl (centres undefined)
> 100 µM (inactive)

Follow-up entry: "NC(=O)CSc1nc2ccccc2c(=O)n1N"
> 100 µM (inactive)

Follow-up entry: "CN(C)c1nc(Cl)c2c(-c3ccccc3)c(-c3ccccc3)oc2n1"
75.7 µM (inactive)

Follow-up entry: CSc1nc(NC2OCC(OC(C)=O)C(OC(C)=O)C2OC(C)=O)c(/N=C\C=N\c2c(NC3OCC(OC(C)=O)C(OC(C)=O)C3OC(C)=O)nc(SC)n(C)c2=O)c(=O)n1C (centres undefined)
> 100 µM (inactive)

Follow-up entry: CC(C)(C)[Si](C)(C)OCC1OC(n2ccc(=O)[nH]c2=O)C(O[Si](C)(C)C(C)(C)C)/C1=C/C#N (centres undefined)
> 29.2 µM (inactive)

Follow-up entry: "CCOC(=O)/C=C(\C(=O)OCC)n1cc(C)c(=O)n(Cc2cn(COCCOC(C)=O)nn2)c1=O"
23.3 µM (inactive)
